Reference for the values: patent US20190185537A1

subject-of-test: human glucagon receptor (human, UniProt P47871 26-477)
Sequence (P47871 26-477): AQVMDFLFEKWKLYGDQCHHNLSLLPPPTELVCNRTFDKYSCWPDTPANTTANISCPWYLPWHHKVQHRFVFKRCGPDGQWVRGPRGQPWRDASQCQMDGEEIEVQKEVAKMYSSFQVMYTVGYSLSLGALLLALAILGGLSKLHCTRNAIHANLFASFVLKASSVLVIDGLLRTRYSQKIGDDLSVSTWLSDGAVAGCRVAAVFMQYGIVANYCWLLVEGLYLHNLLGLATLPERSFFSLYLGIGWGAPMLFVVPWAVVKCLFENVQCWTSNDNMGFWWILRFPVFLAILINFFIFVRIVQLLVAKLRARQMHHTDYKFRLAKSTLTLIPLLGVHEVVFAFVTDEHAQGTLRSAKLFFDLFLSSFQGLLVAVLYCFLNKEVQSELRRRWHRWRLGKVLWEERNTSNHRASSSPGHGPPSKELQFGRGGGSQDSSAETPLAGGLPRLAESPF
assay-overview: cell-based or functional assay
Side chains are listed from the residue outwards. Ends that are not written are not given here. * marks the point of attachment. Palmitoyl = CCCCCCCCCCCCCCCC(=O)*; Ahx = NCCCCCC(=O)O
experimental-endpoint: cAMP EC50 (assay 1) (nM)
A number alone suffices; assume nM.

Qu. Output cAMP EC50 (assay 1) of HSQGTFTSDYSKYLDSRRAQDFVQWLVAGGSGSGSG-NH2 [g402]
Ans. 0.0596

Qu. Output cAMP EC50 (assay 1) of HSQGTFTSDYSKYLDSRAAQK([Ahx-Palmitoyl])FVQWLERGG-NH2 (not fully specified) [g806]
Ans. 0.0099

Qu. Output cAMP EC50 (assay 1) of HSQGTFTSDYSKYLDSERAK([Ahx-Palmitoyl])DFVAWLERGG-NH2 (not fully specified) [g787]
Ans. 0.0436

Qu. Output cAMP EC50 (assay 1) of HSQGTFTSDYSEYLDSK([Ahx-Palmitoyl])RARDFVEWLENT-NH2 (not fully specified) [g825]
Ans. 0.00367

Qu. Output cAMP EC50 (assay 1) of HSQGTFTSDYSKYLDSRRAQDFVQWLVAGGGGGGK-NH2 [g325]
Ans. 0.0103
